# Lookup of reported inhibition at 1 µM keyed by entry
- assayed.target: CDK8/CycC (Homo sapiens)
- Construct: purchased Carna Biosciences
- protocol.notes: CDK8 inhibitory activity (TR-FRET, Kinase Tracer-236 displacement)
- Format: binding
- condition.context: 1 μM of the test compound; read-out: Percent inhibition of CDK8 activity (%)
measurement.type: inhibition at 1 µM (%)

>>> assay_result("Cn1cc(-c2ccncc2/C=C/C(=O)Nc2ccc(CCN3CCOCC3)cc2)cn1")
96
>>> assay_result("Cn1cc(-c2ccncc2/C=C/C(=O)Nc2ccc3c(c2)CCC3=O)cn1")
92
>>> assay_result("COc1ncc(-c2ccncc2/C=C/C(=O)Nc2ccc(CN3CCOCC3)cc2)s1")
99
>>> assay_result("CC1CN(Cc2ccc(NC(=O)/C=C/c3cnccc3-c3cnn(C)c3)cc2)CCO1 (stereo not shown)")
99
>>> assay_result("Cn1cc(-c2ccncc2/C=C/C(=O)Nc2ccc(CN3CCCC3CO)cc2)cn1 (stereo not shown)")
104
>>> assay_result("O=C(/C=C/c1cnccc1-c1cnn(C2CC2)c1)Nc1ccc(CN2CCOCC2)cc1")
92
>>> assay_result("O=C(/C=C/c1cnccc1-c1cnn(C2CC2)c1)Nc1ccc(CN2CC(F)C2)cc1")
107
>>> assay_result("Cc1cc(NC(=O)/C=C/c2cnccc2-c2cnn(C3CC3)c2)ccc1CN1CCOCC1")
98
>>> assay_result("Cn1cc(-c2ccncc2/C=C/C(=O)Nc2ccc(CN3CCOCC3)c(F)c2)cn1")
99
>>> assay_result("Cn1cc(-c2c(F)cncc2/C=C/C(=O)Nc2ccc(CN3CCOCC3)cc2)cn1")
100
>>> assay_result("Cn1cc(-c2c(F)cncc2/C=C/C(=O)Nc2ccc(CN3CCOCC3)cc2F)cn1")
98
>>> assay_result("Cc1ncc(-c2ccncc2/C=C/C(=O)Nc2ccc(CN3CCOCC3)cc2)s1")
95
>>> assay_result("CC1COCCN1Cc1ccc(NC(=O)/C=C/c2cnccc2-c2cnn(C)c2)cc1 (stereo not shown)")
100

====

- assayed.target: CDK19 (CDC2L6/CycC) (Homo sapiens, UniProt Q9BWU1)
- Construct: purchased Carna Biosciences
- Sequence (Q9BWU1 whole entry): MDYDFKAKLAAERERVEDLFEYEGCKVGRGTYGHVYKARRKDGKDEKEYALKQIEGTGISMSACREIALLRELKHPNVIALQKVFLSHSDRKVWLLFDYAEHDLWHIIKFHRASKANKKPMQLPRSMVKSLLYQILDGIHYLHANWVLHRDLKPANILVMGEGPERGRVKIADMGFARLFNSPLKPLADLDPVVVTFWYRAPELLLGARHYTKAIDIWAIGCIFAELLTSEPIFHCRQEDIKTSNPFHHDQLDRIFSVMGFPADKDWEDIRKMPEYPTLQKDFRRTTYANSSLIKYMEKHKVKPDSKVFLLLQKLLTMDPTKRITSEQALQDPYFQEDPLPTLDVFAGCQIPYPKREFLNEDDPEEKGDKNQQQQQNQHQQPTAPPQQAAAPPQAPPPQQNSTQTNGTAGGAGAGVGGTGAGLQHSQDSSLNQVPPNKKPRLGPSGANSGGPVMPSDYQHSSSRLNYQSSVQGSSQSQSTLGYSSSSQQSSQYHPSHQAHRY
- Sequence (P24863 whole entry partner): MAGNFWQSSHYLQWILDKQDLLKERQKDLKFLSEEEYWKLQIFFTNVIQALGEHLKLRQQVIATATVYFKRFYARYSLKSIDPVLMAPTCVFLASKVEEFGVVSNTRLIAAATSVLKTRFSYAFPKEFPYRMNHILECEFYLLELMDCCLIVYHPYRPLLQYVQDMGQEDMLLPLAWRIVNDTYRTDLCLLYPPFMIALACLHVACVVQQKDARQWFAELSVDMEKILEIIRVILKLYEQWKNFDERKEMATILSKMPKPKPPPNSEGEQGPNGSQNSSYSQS
- protocol.notes: CDK19 inhibitory activity (TR-FRET, Kinase Tracer-236 displacement)
- Type: binding
- condition.context: 1 μM of the test compound; read-out: Percent inhibition of CDK19 activity (%)
measurement.type: inhibition at 1 µM

>>> assay_result("Cn1cnc2ccc(-c3c(F)cncc3/C=C/C(=O)Nc3ccc(CN4CC(F)(F)C4)cc3)cc21 [Example 358]")
"101%"
>>> assay_result("O=C(/C=C/c1cnccc1-c1ccc2[nH]cnc2c1)Nc1ccc(CN2CCOCC2)cc1 [Example 241]")
"101%"
>>> assay_result("CN(C)CCc1ccc(NC(=O)/C=C/c2cnccc2-c2cnn(C)c2)cc1 [Example 226]")
"98%"
>>> assay_result("O=C(/C=C/c1cnccc1-c1cnn(CC2CC2)c1)Nc1ccc(CCN2CCOCC2)cc1 [Example 108]")
"97%"
>>> assay_result("Cn1cc(-c2ccncc2/C=C/C(=O)Nc2ccc(N3CCOCC3)c(Cl)c2)cn1 [Example 159]")
"100%"
>>> assay_result("CC(C)(O)Cc1ccc(NC(=O)/C=C/c2cnccc2-c2cnn(C3CC3)c2)cc1 [Example 143]")
"103%"
>>> assay_result("O=C(/C=C/c1cnccc1-c1cnn(C2CC2)c1)Nc1ccc(COC(F)F)cc1 [Example 292]")
"93%"

====

- assayed.target: CDK8/CycC (Homo sapiens, UniProt P49336)
- Construct: purchased Carna Biosciences
- Sequence (P49336 whole entry): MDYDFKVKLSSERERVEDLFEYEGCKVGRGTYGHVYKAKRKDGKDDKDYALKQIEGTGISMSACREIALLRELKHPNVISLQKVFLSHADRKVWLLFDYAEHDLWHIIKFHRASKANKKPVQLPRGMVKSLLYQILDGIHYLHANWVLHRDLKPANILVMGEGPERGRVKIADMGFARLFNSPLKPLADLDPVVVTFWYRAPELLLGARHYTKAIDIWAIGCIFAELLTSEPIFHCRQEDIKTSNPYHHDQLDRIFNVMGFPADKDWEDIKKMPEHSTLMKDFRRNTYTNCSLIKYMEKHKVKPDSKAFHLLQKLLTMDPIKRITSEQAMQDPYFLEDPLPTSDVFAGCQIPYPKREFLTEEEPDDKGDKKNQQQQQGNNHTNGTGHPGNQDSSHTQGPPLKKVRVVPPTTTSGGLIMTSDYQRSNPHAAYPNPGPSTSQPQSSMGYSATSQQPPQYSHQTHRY
- Sequence (P24863 whole entry partner): as the sequence (P24863 whole entry partner) above
- protocol.notes: CDK8 inhibitory activity (TR-FRET, Kinase Tracer-236 displacement)
- Type: binding
- condition.context: 1 μM of the test compound; read-out: Percent inhibition of CDK8 activity (%)
# Lookup of reported inhibition at 1 µM keyed by entry
measurement.type: inhibition at 1 µM (%)

>>> assay_result("O=C(/C=C/c1cnccc1-c1cnsc1)Nc1ccc(CN2CCOCC2)cc1 [Example 145]")
90
>>> assay_result("Cn1cc(-c2c(F)cncc2/C=C/C(=O)Nc2ccc3c(c2)CN(CC(C)(F)F)C3)cn1 [Example 351]")
106
>>> assay_result("COCc1ccc(NC(=O)/C=C/c2cnccc2-c2cnn(C)c2)cc1 [Example 239]")
100
>>> assay_result("COC(C)(C)Cc1ccc(NC(=O)/C=C/c2cnccc2-c2cnn(C3CC3)c2)cc1 [Example 272]")
101
>>> assay_result("Cn1cc(-c2ccncc2/C=C/C(=O)Nc2cc(F)c(CN3CCOCC3)cc2F)cn1 [Example 237]")
94
>>> assay_result("Cn1cc(-c2ccncc2/C=C/C(=O)Nc2ccc(CNCC(F)(F)C(F)(F)F)cc2)cn1 [Example 73]")
101
>>> assay_result("O=C(/C=C/c1cnccc1-c1cnn(C(F)F)c1)Nc1ccc(CN2CCOCC2)cc1 [Example 98]")
98
